- Test system: UO-31
- assay-info: NCI tumour cell line growth inhibition, 48 h
Activity calls are given as the source filed them. Rule as the data show it: active = GI50 up to about 1.1 µM and inactive = higher.
Reported GI50 by item:

{"columns": ["compound", "GI50"],
 "data": [
  ["N/N=C(\\C(=O)Nc1ccc([N+](=O)[O-])cc1)C(C1=Nc2cc([N+](=O)[O-])ccc2NC1)[N+](=O)[O-] (stereo not given)", "22.1 µM (inactive)"]
]}

Tested on UO-31, the item C/C(CN1C(=O)c2ccccc2C1=O)=N\NS(=O)(=O)c1cccc([N+](=O)[O-])c1 showed GI50 equal to > 100 µM (inactive)

The value of GI50 recorded for O=C(O)CN1CCN2CCOCCN(CC1)CCN(CC(=O)O)CC2 when tested on UO-31 reads > 100 µM (inactive)

The compound O=[N+]([O-])c1ccc(/C=N/C23CC4CC(CC(C4)C2)C3)cc1 on UO-31: GI50 was > 100 µM (inactive)

---

- Tested on: NCI-H226
- assay-info: NCI tumour cell line growth inhibition, 48 h
The source made the active and inactive calls. Cut-off read from the data, not from the text of the source: active = GI50 up to about 1.1 µM and inactive = higher. *1 amine or outer side, *2 acyl side, *3 side chain or, on linkers, in order; H or OH if unused. Where a SMILES comes first, the peptide text is derived from it. [ ]: non-standard residue; d: D form. The star is where a group is joined. X31 = CC(=O)N(C)SCC(N[*:1])C(=O)[*:2]; Fmoc = O=C(OCC1c2ccccc2-c2ccccc21)*; For = O=C*
Outcome (select one): true (1) = active, false (0) = inactive

{"columns": ["compound", "system-name", "assigned-label"],
 "data": [
  ["O=c1c2ccccc2c2ccccc2c(=O)n1Cc1ccc2c(c1)OCO2", "NCI-H226", "false (0)"],
  ["O=c1oc2ccccc2c(Nc2ccc3c(c2)Sc2ccccc2O3)c1[N+](=O)[O-]", "NCI-H226", "false (0)"],
  ["CC(=O)N(C)SCC(NC(=O)C(Cc1ccccc1)NC(=O)OCC1c2ccccc2-c2ccccc21)C(=O)NC(Cc1ccccc1)C(=O)NC(Cc1cn(C=O)c2ccccc12)C(=O)NC(CCCCNC(=O)OCC1c2ccccc2-c2ccccc21)C(=O)NC(C(=O)NC(CSN(C)C(C)=O)C(=O)NC(C(N)=O)C(C)O)C(C)O (stereo unspecified) (Fmoc-F[X31]FW(For)K(Fmoc)T[X31]T-NH2; configuration not given here)", "NCI-H226", "false (0)"],
  ["NCC(Cl)C(O)c1c[nH]c(N)n1 (stereo unspecified)", "NCI-H226", "false (0)"]
]}

Task: For CC1=NN(c2ccc(S(=O)(=O)O)cc2)C2(C1)C(Cl)C(=O)N2c1nc2ccccc2s1 (stereo unspecified) , what call appears in the results of this test?
Result: false (0)

Task: Please let me know the test result on file for CC(C)SC1SCC2C(=O)N(C)C3(CC3C)C(=O)OCC(NC(=O)c3nc4ccccc4cc3O)C(=O)NC(C)C(=O)N(C)C1C(=O)N(C)C1(CC1C)C(=O)OCC(NC(=O)c1nc3ccccc3cc1O)C(=O)NC(C)C(=O)N2C (stereo unspecified) .
Result: true (1)

---

- System: HL-60
- assay-info: NCI tumour cell line growth inhibition, 48 h
Calls of active or inactive are those of the source. Cut-off read from the data, not from the text of the source: active = GI50 up to about 1.1 µM and inactive = higher.
Log the outcome using a class from YES for active, NO for inactive

{"columns": ["compound", "assigned-label"],
 "data": [
  ["OC(c1ccccc1)C(F)(F)c1nc2ccccc2o1 (configuration not stated)", "NO"],
  ["Sc1ncc(-c2cncc(-c3cnc(S)nc3)n2)cn1", "NO"],
  ["NCC(Cl)C(O)c1c[nH]c(N)n1 (configuration not stated)", "NO"],
  ["Cn1c(=O)c2nc(SCCN3CCOCC3)[nH]c2n(C)c1=S", "NO"],
  ["C1CN(C23OC4(N5CCOCC5)C5C6CC(C7C6C4C72)C53)CCO1 (configuration not stated)", "NO"]
]}

Task: So what was the verdict on Cc1ccc2c(O)cc(-c3cc4ccccc4s3)nc2n1 in this test?
Result: NO

Task: Please let me know the test result on file for N/N=C(\C(=O)Nc1ccc([N+](=O)[O-])cc1)C(C1=Nc2cc([N+](=O)[O-])ccc2NC1)[N+](=O)[O-] (configuration not stated) .
Result: NO

Task: Could you kindly confirm the outcome this assay logged for CC(C)=CCC[C@@H](C)C1=C(O)C(=O)C(C)=C(Nc2ccccc2)C1=O ?
Result: NO
